# TEST_SYSTEM: T1, EN2 (Engrailed-2) (UniProt P19622 P19622:1-333)
# T1 sequence: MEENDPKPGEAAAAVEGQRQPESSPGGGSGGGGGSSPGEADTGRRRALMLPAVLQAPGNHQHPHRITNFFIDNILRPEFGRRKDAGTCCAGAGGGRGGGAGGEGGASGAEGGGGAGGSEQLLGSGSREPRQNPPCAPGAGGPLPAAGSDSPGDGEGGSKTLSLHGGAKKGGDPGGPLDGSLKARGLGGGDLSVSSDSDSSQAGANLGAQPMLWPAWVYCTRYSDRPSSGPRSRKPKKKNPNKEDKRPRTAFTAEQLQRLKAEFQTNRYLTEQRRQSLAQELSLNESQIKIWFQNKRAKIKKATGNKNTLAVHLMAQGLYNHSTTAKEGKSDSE
# ASSAY_INFO: FAM fluorescence of protein-bound aptamer; printed as hDNA5
# CONDITION_INFO: tags: (His)6-tag, pET28a, E. coli BL21(DE3); label: FAM; hairpin, loop 8 bases, stem 10 bp
MEASURED_ENDPOINT: pKd
The read-out pKd is expressed as -log10 of concentration in moles per litre.

// pKd value for CGTAATTACCCAGAAGGAGGTAATTACG (structured_DNA) [hpDNA5] : 7.16

The measurements presented in this section are drawn from patent US20160187342.
